Where these numbers come from: PubChem BioAssay (NCI)

# System: 786-0 renal
# test details: NCI tumour cell line growth inhibition, 48 h
metric name: TGI

input: Which TGI reading was recorded for the compound O=C(O)CSc1ccc(N=C=S)cc1 ?
output: > 100 µM

input: Which TGI reading was recorded for the compound COC(=O)C(Cc1ccc2c(c1)CCCC2)Cc1cc2c(cc1C(O)OC)CCC2 (stereo not given) ?
output: > 100 µM

input: Which TGI reading was recorded for the compound CC1CC(=O)C2CC(CO)=CCCC2C1(C)CC/C(=C/CO)CO (stereo not given) ?
output: > 100 µM

* * *

# Test system: SF-295 CNS
# test details: NCI tumour cell line growth inhibition, 48 h; in the data active = GI50 below about 0.43 µM; inactive = the rest
Answer with one of the outcomes given here: active, inactive

Example results:
COc1ccc2c(c1)[n+]([O-])c(C#N)c(NC(=O)c1cccs1)[n+]2[O-]    inactive
COc1ccc2nc3cccc([N+](=O)[O-])c3c(NCCNCCO)c2c1    active
O=c1cc(NCC(O)CN2CCOCC2)n(Cc2ccccc2)c(=O)n1Cc1ccccc1 (configuration not stated)    inactive
Cc1nn(CCO)c(C)c1N=[N+]([O-])c1c(C)nn(CCO)c1C    inactive
O=[N+]([O-])c1ccc2c(c1)C(=NO)c1cc([N+](=O)[O-])ccc1-2    inactive

input: How was Oc1cccc(-c2nc(-c3n[nH]c(=S)n3-c3ccccc3)cc3c2[nH]c2ccccc23)c1 classified in this test?
output: inactive

input: How was CCOC(=O)/C=C1/SC(N2CCCCC2)C(=O)N1CC (configuration not stated) classified in this test?
output: inactive
